Test system: Mus musculus
Test: Toxicity in mouse L1210 cells implanted CDF1 mouse assessed as average weight gain at 6.4 mg/kg, ip single dose on day 1
Type: organism-based
Design: dose 6.4 mg/kg, route intraperitoneal
Details: in vivo
Provide the reported Activity of each item.
Return type: number; implicit unit g.

IN: Quick one: Activity of CC[C@@]1(O)C[C@H](O[C@H]2C[C@H](N(C)C)[C@H](O[C@H]3C[C@H](O)[C@H](O[C@H]4C[C@H](O)[C@H](O)[C@H](C)O4)[C@H](C)O3)[C@H](C)O2)c2c(cc3c(c2O)C(=O)c2c(O)ccc(O)c2C3=O)[C@H]1C(=O)OC ?
OUT: -1.7

IN: Please give the result for CC[C@@]1(O)C[C@H](O[C@H]2C[C@H](N(C)C)[C@H](O[C@H]3C[C@H](O)[C@H](O)[C@H](C)O3)[C@H](C)O2)c2c(cc3c(c2O)C(=O)c2c(O)ccc(O)c2C3=O)[C@H]1C(=O)OC too.
OUT: 0.3

IN: Repeat for the following molecule: CC[C@@]1(O)C[C@H](O[C@H]2C[C@H](NC)[C@H](O[C@H]3C[C@H](O)[C@H](O)[C@H](C)O3)[C@H](C)O2)c2c(cc3c(c2O)C(=O)c2c(O)ccc(O)c2C3=O)[C@H]1C(=O)OC
OUT: 2.5

Origin of measurements: ChEMBL document CHEMBL1148995
